Where these numbers come from: paper PMC12931155

Target: RNF32 (GFP-RNF32) (Homo sapiens)
Construct: GFP-RNF32 fusion from plasmid, expressed in HCT116 cells, diluted cell lysate (not purified)
Sequence (Q9H0A6 whole entry, the tested form may be a part): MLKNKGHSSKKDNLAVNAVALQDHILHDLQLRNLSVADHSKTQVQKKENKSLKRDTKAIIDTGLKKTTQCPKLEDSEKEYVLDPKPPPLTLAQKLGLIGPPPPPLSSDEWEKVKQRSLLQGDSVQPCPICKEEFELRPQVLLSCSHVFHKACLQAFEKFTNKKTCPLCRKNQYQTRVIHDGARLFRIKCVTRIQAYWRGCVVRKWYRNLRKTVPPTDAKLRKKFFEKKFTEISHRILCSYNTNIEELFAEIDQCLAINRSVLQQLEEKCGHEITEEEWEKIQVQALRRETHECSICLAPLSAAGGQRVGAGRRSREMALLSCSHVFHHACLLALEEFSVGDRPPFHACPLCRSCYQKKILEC
Test: microscale thermophoresis, GFP-RNF32 in HCT116 lysate
Format: biochemical
Endpoint: pKd
One number for each entry, as −log10 of the molar value.

query: Using the record for O=C(O)Cc1c[nH]c2ccccc12 , state its measured pKd.
result: 4.38
